targetDesc: mutant huntingtin aggregates (HDex1Q68 fused to ECFP/EYFP) (Homo sapiens, UniProt P42858, INS38QQQQQQQQQQQQQQQQQQQQQQQQQQQQQQQQQQQQQQQQQQQQQQQ)
Sequence (P42858 1-88, stated change not applied): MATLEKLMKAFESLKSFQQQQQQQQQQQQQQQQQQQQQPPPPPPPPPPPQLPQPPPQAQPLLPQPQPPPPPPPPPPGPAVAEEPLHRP
methodNotes: Cellular FRET aggregation assay in stable Tet-off CHO-AA8/Q68-Q68 cells
recordedConditions: half-maximal inhibition of FRET signal, dose response 0.7-50 μM
parameterMeasured: pEC50
Field pEC50 (float): negative decimal logarithm of the concentration in molar.

Task: Which pEC50 value belongs to C=C1[C@@H]2CC[C@@]3(C)[C@H](c4ccoc4)OC(=O)C[C@]13O[C@H]1CC(=O)C(C)(C)[C@H](CC(=O)OC)[C@]12C ?
Result: 5.52
